The measurements presented in this section are drawn from patent US20260258083A1.

Exercise: for every item that follows, state its recorded fold-Kd.
- Subject of test: T1, FLT3xCD3 TCE SEQ ID NO 93
- T1 construct: Single-chain scFv-scFv-scFc T cell engager; also called FLT3×CD3ε TCE; FLT3_7 A8xCD3-scFc Bispecific HLE molecule
- Assay info: Table 5, ratio to a reference peptide that the table does not name
- Design: reference not given here
Where no end group is shown, it is not given here. Side-chain parts run from the residue outwards. [ ]: non-standard residue; d: D form. pGlu = O=C1CC[C@@H](C(=O)O)N1; disulfide = not defined here
API: value field is a number in fold; no unit string.

fold-Kd recorded for this binder, [pGlu]DGNEEMGKGMEENGDQC([disulfide-4‑arm PEG 20 kDa]) (reading uncertain; also: four peptides on one 4-arm PEG, printed as pGlu-DGNEEMGKGMEENGDQC, also called CD3ε PepPOL, v2; Pep-PEG v2) [(pGlu-DGNEEMGKGMEENGDQC)4 -PEG(20 kDa)] , is 203

fold-Kd recorded for this binder, QDGNEEMGGMEENGDQ (how the reversed half is joined is not explained) [QDGNEEMG-GMEENGDQ] , is 3.62

fold-Kd recorded for this binder, QDGNEEMGKQDGNEEMG [QDGNEEMG-K-QDGNEEMG] , is 2.77

fold-Kd recorded for this binder, [pGlu]DGNEEMGKGMEENGDQC (Position 1 is written E for pE) [pGlu-DGNEEMGKGMEENGDQC] , is 203

fold-Kd recorded for this binder, [pGlu]DGNEELKGC (also called ID 14974) [pGlu-DGNEELKGC] , is 252

fold-Kd recorded for this binder, QDGNEEMGQDGNEEMG [QDGNEEMG-QDGNEEMG] , is 3.25
